System: HEK-293T
Test protocol: Multiplex assay against HEK293T
Format: toxicity, cell-based
Condition notes: human, 12 h, 1 µM, compound concentration 1 uM

{"columns": ["Molecule", "Population Normal (%)"],
 "data": [
  ["COc1ccc2c(c1OCc1ccccc1)C[C@@H](C(=O)O)N(C(=O)C(c1ccccc1)c1ccccc1)C2 [OLODANRIGAN]", 92],
  ["COc1cc2nc(N3CCN(C(=O)c4ccco4)CC3)nc(N)c2cc1OC.Cl [PRAZOSIN HYDROCHLORIDE]", 93],
  ["COc1cc(N2CCN(C)CC2)ccc1Nc1nccc(-c2cn(C)c3cnccc23)n1", 100],
  ["O=C(Nc1c[nH]nc1-c1nc2cc(CN3CCOCC3)ccc2[nH]1)NC1CC1 [AT-9283]", 100],
  ["Cc1ccc(-c2c(C(=O)CF)n(CCCO)c3ncnc(N)c23)cc1", 100],
  ["Cc1c(C(=O)NCCCN(C)C)sc2ncnc(Nc3ccc(F)cc3OC(C)CF)c12 (configuration not stated)", 100],
  ["COc1ccc(CC(=O)NC(N/C(=N/C#N)Nc2cccc3ncccc23)C(C)(C)C)cc1OC (configuration not stated)", 100]
]}

====

Test system: Fibroblast
Test protocol: Multiplex assay against human fibroblast
Assay type: toxicity, cell-based
Condition notes: 12 h, 1 µM, compound concentration 1 uM
Examples of molecules with documented Population Hoechst High Intensity Objects (%) follow.
Metric name: Population Hoechst High Intensity Objects (%)

{"columns": ["Molecule", "Quantitative readout"],
 "data": [
  ["O=C(O)C(F)(F)F.O=C1NC(=O)/C(=C/c2c[nH]c(=O)c(-c3ccc(N4CCNCC4)nc3)c2)S1", 0],
  ["C=CC(=O)N1CCC[C@@H](n2nc(C(=O)Nc3ccc(CC(=O)N(C)C)c(C)c3C)c3c(N)ncnc32)C1", 0],
  ["Cc1c(C(=O)NCCCN(C)C)sc2ncnc(Nc3ccc(F)cc3OC(C)CF)c12 (centres undefined)", 0],
  ["Cc1ccc(-c2c(C(=O)CF)n(CCCO)c3ncnc(N)c23)cc1", 0],
  ["CC(C)(C)c1cc(NC(=O)Nc2ccc(-c3cn4c(n3)sc3cc(OCCN5CCOCC5)ccc34)cc2)no1", 2],
  ["C=CCN1C[C@H](C(=O)N(CCCN(C)C)C(=O)NCC)C[C@@H]2c3cccc4[nH]cc(c34)C[C@H]21", 6],
  ["CCC(=N\\O)/C(C)=C/c1ccc(F)cc1", 0],
  ["Cc1cc(C(C#N)c2ccc(Cl)cc2)c(Cl)cc1NC(=O)c1cc(I)cc(I)c1O (centres undefined)", 0],
  ["CCOC(=O)c1c(/C(C#N)=C\\N)c2ccc(Cl)c(Cl)c2n1C", 0]
]}

====

Test system: HEK-293T
Test protocol: Multiplex assay against HEK293T
Format: toxicity, cell-based
Condition notes: human, 48 h, 1 µM, compound concentration 1 uM
Metric name: Population Normal (%)

{"columns": ["Compound", "Quantitative readout"],
 "data": [
  ["Cc1c(C(=O)NCCCN(C)C)sc2ncnc(Nc3ccc(F)cc3OC(C)CF)c12 (stereo not drawn)", 100],
  ["Cc1ccc(-c2c(C(=O)CF)n(CCCO)c3ncnc(N)c23)cc1", 100],
  ["CC1(COc2ccc3c(c2)ncn3-c2ccc3cccc(N4CCC(N)CC4)c3n2)COC1", 98],
  ["Oc1c(CN2CCN(c3ccccn3)CC2)cc(Cl)c2cccnc12", 96],
  ["CN1CC[C@@]23CCCC[C@@H]2[C@@H]1Cc1ccc(O)cc13.O=C(O)C(O)C(O)C(=O)O", 100],
  ["CN1[C@@H](CC(=O)c2ccccc2)CCC[C@H]1C[C@H](O)c1ccccc1.Cl [LOBELINE HYDROCHLORIDE]", 100],
  ["Cc1cc(NC(=O)NCCN2CCC(O)(Cc3ccccc3)CC2)c2ccccc2n1", 96],
  ["COc1cc(NC(=O)CCN2CCC(OC(=O)Nc3ccccc3-c3ccccc3)CC2)c(Cl)cc1CNC[C@H](O)c1ccc(O)c2[nH]c(=O)ccc12", 96]
]}
